From: paper PMC10817917

System: E. cloacae CQ1941
Test: Broth microdilution MIC/MBC, glycosides with or without polymyxins
Assay type: cell-based
Conditions: Cpd conc. 3.125 μg/mL; strain D
Property label: MIC of colistin in combination with the compound (µg/mL)

{"columns": ["Molecule", "Observed value"],
 "data": [
  ["CCCCCCCCCCCC[C@H]1O[C@H](C)C[C@H](O)[C@H]1O [Compound 5]", 0.125],
  ["CCCCCCCCCCCCO[C@H]1C[C@H](O)[C@@H](O)[C@H](C)O1 [Compound 3]", 0.25],
  ["CCCCCCCCCCCCO[C@@H]1O[C@H](C)C[C@H](O)[C@H]1O [Compound 2]", 0.25],
  ["CCCCCCCCCCCCO[C@H]1O[C@H](C)C[C@H](O)[C@H]1O [Compound 1]", 0.25],
  ["CCCCCCCCCCCCO[C@@H]1C[C@@H](O)[C@H](O)[C@@H](CO)O1 [Compound 4]", 0.5]
]}
